- study target: T1, Cyno-his (cynomolgus)
- T1 construct: extracellular domain; soluble analyte of the Biacore runs; also called cSCRx91-his; cBMPR1B-CHis
- assay protocol: Biacore
pKd: −log10 of the molar value.

binder: SC91.3 (murine anti-BMPR1B antibody) (antibody, V domains shown, Murine hybridoma antibody) VH: QVQLQQPGAELVKPGASVKLSCKASGYTFTSYWMQWVKQRPGQGLEWIGEIDPSDSYTLYNQKFKGKATLTVDTSSSTAYMQLSSLTSEDSAVYFCARFGYYIEYWGQGTTLTVSS VL: DVVMTQTPLSLPVSLGDQASISCRSSQSLVHSTGNTYLHWYLQKPGQSPKLLIYKVSNRFSGVPDRFSGSGSGTDFTLKISRVEAEDLGVYFCSQSTHVPFTFGSGTKLEIK
pKd: 9.30
--
binder: SC91.27 (murine anti-BMPR1B antibody) (antibody, V domains shown, Murine hybridoma antibody with the same VL as SC91.20) VH: QVQLQQPGAEVVKPGASVKLSCKASGYTFTNYWMQWVKQRPGQGLEWIGEIDPSDRYTMYNQKFKGKATLIVDTSSSTAYMQLSSLTSEDSAVYFCARFGYYVDYWGQGTTLTVSS VL: DVVMTQTPLSLPVSLGDQASISCRSSQSLVHSTGNTYLHWYLQKPGQSPNLLIYKVSNRFSGVPDRFSGSGSGTDFTLKISRVEAEDLGVYFCSQSTHVPFTFGSGTKLEIK
pKd: 8.59
--
binder: SC91.1 (murine anti-BMPR1B antibody) (antibody, V domains shown, Murine hybridoma antibody with a kappa light chain) VH: QVQLQQPGAELVKPGASVKLSCKASGYTFTSYWMQWVKQRPGQGLEWIGEIDPSDNYTLYNQKFKGKATLTVDTSSSTAYMQLSSLTSEDSAVYYCARFGYYVDYWGLGTTLTVSS VL: DVVMTQTPLSLPVSLGDQASIFCRSSQSLVHSTGNTYLHWYLQKPGQSPKLLIYKVSNRFSGVPDRFSGSGSGTDFTLKISRVEAEDLGVYFCSQSTHVPFTFGSGTKLEIK
pKd: 8.29
--
binder: SC91.11 (antibody, V domains shown) VH: QVQLQQPGAELVKPGASVKLSCKASGYTFTTYWMHWVKQRPGRGLEWIGRIDPNSGGTKYNEKFKSKATLTVDKPSSTACMQLSSLTSEDSAVYYCASRRGDIDVWGTGTTVTVSS VL: DIVMTQSQKFMSTSVGDRVSVTCKASQNVGTNVFWYQQKPGQSPKALIYAASYRYSGVPDRFTGSGSGTDFTLTISNVQSEDLADYFCQQYDSYPLTFGDGTKLELR
pKd: 7.95
--
binder: SC91.9 (murine anti-BMPR1B antibody) (antibody, V domains shown, Murine hybridoma antibody) VH: QVQLQQPGAELVKPGASVKLSCKASGYTFISYWMHWVKQRPGQGLEWIGMIHPNSGSTNYNESFKSKATLTVDKSSSTAYMQLSSLTSEDSAVYYCARDLLIATVVVTPYFAYWGQGTILTVSS VL: DIQMTQTTSSLSASLGDRVTISCRASQDISNFLNWYQQKPDGTIKFLIYYTSRLHSGVPSRFSGSGSGTDYSLTIRNLEQEDIATYFCQQGNTLPYTFGGGTKLEIK
pKd: 9.82
--
binder: SC91.20 (antibody, V domains shown) VH: QVQLQQPGAEVVRPGASLKLSCKASGYTFTSYWMQWIKQRPGQGLEWIGEIDPSDNYTMYNQKFKGKATLTVDTSSSTAYMQLSSLTSEDSAVYFCARFGFYVDYWGQGTTLTVSS VL: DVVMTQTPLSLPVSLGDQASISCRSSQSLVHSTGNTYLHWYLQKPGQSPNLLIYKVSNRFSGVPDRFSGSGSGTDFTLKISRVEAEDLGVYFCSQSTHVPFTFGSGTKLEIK
pKd: 8.64
